Experiment: antimalarial activity against Dd2 strain (AID 2302);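 further: 0% = DMSO untreated growth and 100% = chloroquine plus artemisinin killed control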
Conditions: P. falciparum Dd2 in RBCs, LDH growth readout, 72 h; at 2 µM
Activity calls are given as the source filed them.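 How the source made its calls: active means growth inhibition above 50% at the single 2 µM test dose, taken to imply half-maximal potency below 2 µM; inactive means the rest.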
Pick one: 1 (yes) for active, 0 (no) for inactive

Short answer needed: outcome of this test for "COc1ccc2ncc(Cl)c([C@@H](O)CN3CCC(NCc4cc5c(cn4)OCCO5)CC3)c2c1" ?
1 (yes)

Short answer needed: outcome of this test for "c1ccc(C2=NN=C(c3ccccn3)[C@H]3[C@H]4C[C@@H]([C@@H]23)[C@@H]2[C@H]4[C@H]3C[C@@H]2c2ccccc23)nc1" ?
1 (yes)

Short answer needed: outcome of this test for "NS(=O)(=O)c1ccccc1Nc1nc(Nc2ccc(N3CCOCC3)cc2)nc2c1CCC2" ?
1 (yes)

Short answer needed: outcome of this test for N#Cc1ccc2c(c1)CCN(CCC1CCC(NC(=O)c3ccc(-c4ccccc4)s3)CC1)CC2 (configuration not stated) ?
0 (no)

Short answer needed: outcome of this test for "COc1ccc(-c2ccccc2CNC2Cc3ccccc3C2)cc1S(=O)(=O)NCCN1CCCC1" ?
0 (no)

Short answer needed: outcome of this test for "CCNc1cc(C)nc(Nc2ccc(NC(=O)c3ccc(OC)c(OC)c3)cc2)n1" ?
1 (yes)

Short answer needed: outcome of this test for CCN(CC)CC(O)Cc1c2ccc([N+](=O)[O-])cc2nc2cc(OC)c(OC)cc12 (configuration not stated) ?
0 (no)
